These measurements were taken from ChEMBL document CHEMBL5058577.

Listing: Population Mitochondria Different-Phenotype (%) of selected molecules
- Test system: U2OS
- assay: Multiplex assay against U2OS
- Assay type: toxicity, cell-based
- settings: human, 48 h, 1 µM, compound concentration 1 uM, replicate 1

Population Mitochondria Different-Phenotype (%) measured on Cl.Cl.OCCOCCN1CCN(C(c2ccccc2)c2ccc(Cl)cc2)CC1 (stereo not drawn) [HYDROXYZINE HYDROCHLORIDE] = 3%

Population Mitochondria Different-Phenotype (%) measured on CCn1c(-c2nc3cc(C(=O)N4CCCC(N)C4)ccc3n2C)cc2ccccc21.Cl (stereo not drawn) = 3%

Population Mitochondria Different-Phenotype (%) measured on Cn1cc(C(=O)OCC2CCN(CCNS(C)(=O)=O)CC2)c2ccccc21 = 3%

====

Listing: Population Hoechst High Intensity Objects (%) of selected molecules
- System: Fibroblast
- assay: Multiplex assay against human fibroblast
- Format: toxicity, cell-based
- settings: 24 h, 10 µM, compound concentration 10 uM, replicate 1
Hi! Could you send only the number? It should be in %, unit omitted.

# molecule, unit.abbreviation, observed.value
data = [
    ("O=c1ccc2ccc(OCCCCN3CCN(c4cccc5sccc45)CC3)cc2[nH]1 [BREXPIPRAZOLE]", "%", 13),
    ("CCc1nn2c(C)cc(C)nc2c1Cc1ccc(-c2nnc(C3CCNCC3)o2)cc1", "%", 9),
]

Population Hoechst High Intensity Objects (%) measured on C[C@@H]1CC(=O)Nc2cccc(-c3ccc4c(c3)c(-c3cnn(C)c3)nn4C)c2N1 = 10

====

Listing: Population Normal (%) of selected compounds
- Test system: U2OS
- assay: Multiplex assay against U2OS
- Type: toxicity, cell-based
- settings: human, 48 h, 10 µM, compound concentration 10 uM, replicate 1

Please review the following examples before continuing.
# compound, Population Normal (%)
data = [
    ("C[C@H](NC(=O)CNC(=O)c1cccc(Cl)c1)c1ccccc1", "97%"),
    ("COc1cc(Nc2ncc3c(n2)-c2ccc(Cl)cc2C(c2c(F)cccc2OC)=NC3)ccc1C(=O)O [ALISERTIB]", "90%"),
    ("Cc1cc(NC(=O)NCCN2CCC(O)(Cc3ccccc3)CC2)c2ccccc2n1 [PALOSURAN]", "98%"),
    ("Cc1c(Cc2ccc3ccccc3n2)c2cc(F)ccc2n1CC(=O)O [TIMAPIPRANT]", "99%"),
    ("CN1CCN2c3ccccc3Cc3ccccc3C2C1.Cl (stereo unspecified) [MIANSERIN HYDROCHLORIDE]", "95%"),
    ("CN(C)C/C=C/C(=O)Nc1ccc(C(=O)N2CCCC(Nc3ncc(Cl)c(-c4c[nH]c5ccccc45)n3)C2)cc1 (stereo unspecified)", "84%"),
]

Population Normal (%) measured on Nc1nc(-c2ccco2)c2cnn(Cc3ccccc3F)c2n1 = 88%

Population Normal (%) measured on COc1cc(OC2CCN(C(C)=O)CC2)ccc1C(=O)N1CCC(N2C(=O)OCc3ccccc32)CC1 = 95%

====

Listing: Population Healthy Nuclei (%) of selected molecules
- Tested on: HEK-293T
- assay: Multiplex assay against HEK293T
- Format: toxicity, cell-based
- settings: human, 48 h, 1 µM, compound concentration 1 uM, replicate 2
Hi! Could you send only the number? It should be in %, unit omitted.

Please review the following examples before continuing.
# molecule, experimental.system, Population Healthy Nuclei (%)
measured = [
    ("O=C(NCCNCC(O)COc1ccc(O)cc1)N1CCOCC1.O=C(NCCNCC(O)COc1ccc(O)cc1)N1CCOCC1.O=C(O)/C=C/C(=O)O (stereo unspecified) [XAMOTEROL FUMARATE]", "HEK-293T", 81),
    ("O=C(O)CCC/C=C\\CC1C(O)CC(O)C1/C=C/C(O)COc1cccc(Cl)c1 (stereo unspecified)", "HEK-293T", 81),
]

Population Healthy Nuclei (%) measured on CN(C)C(=O)Cn1cc(-c2ccc(-c3nnc4ccccn34)cc2)cn1 = 80

Population Healthy Nuclei (%) measured on COCCn1c(C)c(C)s/c1=N\C(=O)C1C(C)(C)C1(C)C = 81

Population Healthy Nuclei (%) measured on CSc1nc(NC2CCCC2)c([N+](=O)[O-])c(NC2CCCC2)n1 = 77

Population Healthy Nuclei (%) measured on OCCCNc1cc(-c2ccnc(Nc3cccc(Cl)c3)n2)ccn1 = 65
